Taken from the CombiSolv-Exp solvation set (Vermeire and Green 2021).

Test: solvent given as SMILES
Conditions: in c1ccc2c(c1)CCCC2
Exercise: for every item that follows, state its recorded solvation free energy, 298 K.
// units = kcal/mol; emit number, no label

I'd like to know its solvation free energy, 298 K. The compound in question is `C#CCCCC` -3.99

Fill in: solvation free energy, 298 K of `C=CCCCC` is ___ -3.69

Quick one: solvation free energy, 298 K for `C1=CCCC=C1` ? -4.31

Find the recorded solvation free energy, 298 K belonging to `C1=CCC=CC1` and report it. -4.58

###

Provide the recorded solvation free energy, 298 K for the entries that follow.
Experiment: solvent given as SMILES
Conditions: in CN1CCCC1=O
Please respond with the number in kcal/mol and leave the unit unwritten.

Recorded solvation free energy, 298 K for `CC(C)C` , please? -1.2

Quick check: solvation free energy, 298 K of `C=CCCCC` ? -2.91

For `N` , what is its reported solvation free energy, 298 K? -1.85

Which solvation free energy, 298 K value is on record for `CCC` ? -0.89

Field request: solvation free energy, 298 K | item: `CCOC(=O)CC` -4.49

May I ask what solvation free energy, 298 K has been recorded for `C=CCCCCCC` ? -4.02

Which solvation free energy, 298 K is listed for `CCCCC=O` ? -4.67

For the compound `CC(C)(C)Br` , what solvation free energy, 298 K is on record? -3.44

What value of solvation free energy, 298 K has been reported for the following compound? `CCCC(C)=O` -4.73

solvation free energy, 298 K lookup needed for `C=CC(=C)C` , thanks. -2.89

Find the recorded solvation free energy, 298 K belonging to `C1=CCCC=C1` and report it. -3.77

For the compound `O=C=S` , what solvation free energy, 298 K is on record? -1.41

Fill in: solvation free energy, 298 K of `C1COCCO1` is ___ -4.97

Please report the recorded solvation free energy, 298 K for `[HH]` . 1.98

// returns reported solvation free energy, 298 K for input `CCC1CCCCC1` -4.2

If you can, please state the reported solvation free energy, 298 K value of `CC1CCCC1` . -2.99

Give its solvation free energy, 298 K value. Item: `FC(F)(F)C(F)(F)Cl` 0.07

Need solvation free energy, 298 K, item `FC(F)(Cl)C(F)(F)Cl` -1.49

Fill blank: measured solvation free energy, 298 K of the compound `C=CC=C` is ____. -2.36

Entry `O=Cc1ccc(C(=O)O)cc1` : reported solvation free energy, 298 K = ? -12.8

Any idea what solvation free energy, 298 K was measured for `ClC(Cl)Cl` ? -5.24

Requested read-out: solvation free energy, 298 K. Entry: `CC(C)O` -5.12

Entry `c1ccc2c(c1)ccc1ccccc12` : reported solvation free energy, 298 K = ? -11.5

Fill in: solvation free energy, 298 K of `CCCC1CCCCC1` is ___ -4.57

Recorded solvation free energy, 298 K for `FC(Cl)Cl` , please? -1.34

Can you share its solvation free energy, 298 K? I mean this compound: `c1ccc2c(c1)[nH]c1ccccc12` -14.5

What value of solvation free energy, 298 K has been recorded for this entry: `C#CCCCCCC` -4.98

I am curious: what solvation free energy, 298 K value has been reported for `CCC=C(C)C` ? -3.06

solvation free energy, 298 K for `FC(C(F)(F)F)C(F)(F)F` ? -0.6

If you can, please state the reported solvation free energy, 298 K value of `FCC(F)(F)F` . -1.96

# lookup: solvation free energy, 298 K of `C1=CCCC1` -2.84
